Source listed as the RNAGym collection of RNA variant scans (doi:10.7554/elife.80360).

B1: Twister Ribozyme (parent)
chain: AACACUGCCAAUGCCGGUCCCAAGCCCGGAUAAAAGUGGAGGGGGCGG

- Variants of: B1
- assay: self-cleavage, relative activity (ratio to wild type); higher = more cleavage; co-transcriptional
Classify by self-cleavage. Ranges: label 0 (below 0.1), label 1 (0.1 to below 0.4), label 2 (0.4 or more)

See these solved cases before continuing.
residues | group
AACAGUGCCAAUGCCGGUCCCAAGCCUGGAUAAAAGUGGAGGGGGCGG [C5G C27U] | label 2
AACACUGCCAAUGCCGGUCCCAAGCCCGGAUAAAAGUGGAGUAGGCGG [G42U G43A] | label 1
AAGACUGCCAAUGCCGGUCCCAAGCCCGGAUAAAAGUGGAGGUGGCGG [C3G G43U] | label 1
AGCACUGCCAAUGCCGGUCCCAAGACCGGAUAAAAGUGGAGGGGGCGG [A2G C25A] | label 1

query: Class for AACACUGCCAAUGGCGGUCCCAAGCCCGGAUAAAAGUGGAGGGAGCGG [C14G G44A] ?
result: label 1

query: Any idea which band AACACUGCCAAGGCCGGUCCCAAGCCCGGAUAAAAGUGGACGGGGCGG [U12G G41C] is in?
result: label 1

query: Into which bin does this variant go? AACAAUGCCAAUGCCGGUCCCGAGCCCGGAUAAAAGUGGAGGGGGCGG [C5A A22G]
result: label 0

query: Looking at AACACUGGCAAUGCCGGUCCCAAGCCCGGAUAAAAUUGGAGGGGGCGG [C8G G36U] , which class would you pick?
result: label 1

query: Into which bin does this variant go? AACACUGCCAACGCCGGUCCCAUGCCCGGAUAAAAGUGGAGGGGGCGG [U12C A23U]
result: label 2

query: Categorize the following entry: AACACUGCCUAUGCCGGUCCCAAGCCCGGAUAAAAGUGGAGGGAGCGG [A10U G44A]
result: label 2

query: Hi there! Could you help me figure out the category for AACACUGCUAGUGCCGGUCCCAAGCCCGGAUAAAAGUGGAGGGGGCGG [C9U A11G] please?
result: label 2

query: Class? Entry: GACACUGCCAAUGCCGGUCCCAAGCCCGGAUAUAAGUGGAGGGGGCGG [A1G A33U]
result: label 2
